experiment: amyloid nucleation score (Sup35N fusion, yeast selection) (log enrichment); library NNK3; higher = more nucleation; inactive = no reads after selection;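 further: zero at mode of non-aggregating sequences after 7 days selection at 30°C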
Reported Metric: amyloid nucleation score

| Substance | Reported Metric | Obs Value |
| --- | --- | --- |
| LREVLCCVSTDSYVFILLRG | amyloid nucleation score | 1.01 |
| TDSPLRLKRDYSPNSFCRSG | amyloid nucleation score | 0.005 |
| GNFCDCEDFHKGSAGLRWSG | amyloid nucleation score | inactive |
| PGMISSQGSYTFRAWAVSLR | amyloid nucleation score | inactive |

Qu. Query: amyloid nucleation score; subject: "LLSFENNSQLVYVCIDNTLE"
Ans. inactive

Qu. Dear colleague, I am looking for the recorded amyloid nucleation score of the following substance: "RSAFGIGFPGGYCVLDHYER"
Ans. inactive

Qu. May I ask what amyloid nucleation score has been recorded for "KSNYEGTFGRHVLGPLKNKW" ?
Ans. -0.463

Qu. For "IYLNFNKILLMILQIQLWGN" , what is its reported amyloid nucleation score?
Ans. -0.19

Qu. Record request: amyloid nucleation score value, item "QLVLPSFMVTLSCG"
Ans. inactive

Qu. May I ask what amyloid nucleation score has been recorded for "MYSPVFRI" ?
Ans. inactive

Qu. // lookup amyloid nucleation score for "SKPLFMTNNVTMGTIWPHMG"
Ans. inactive

====

experiment: amyloid nucleation score (Sup35N fusion, yeast selection) (log enrichment); library NNK3; higher = more nucleation; inactive = no reads after selection
Reported Metric: amyloid nucleation score

Here is how some substances turned out for amyloid nucleation score.
| Substance | amyloid nucleation score |
| --- | --- |
| TESPNYLYRI | inactive |
| FLGSLDFVSIKCQITHVRTS | inactive |
| YFYKNLSSFHFGKMRLK | inactive |
| GAMNVESLSMFMRVYYVPYR | inactive |
| NESFDCPFAGLYRKQYIWQT | inactive |

Qu. Field request: amyloid nucleation score | item: "DLNDGWGWKRLTFQSVRCGE"
Ans. inactive

Qu. amyloid nucleation score for "QSDRVPRILLGKRFKSPLSF" ?
Ans. inactive

Qu. // returns reported amyloid nucleation score for input "GFIGECFFDHMGITFVLIET"
Ans. inactive

Qu. Query (substance): "VVNILW" ; field requested: amyloid nucleation score
Ans. 1.82

====

assay: amyloid nucleation score (Sup35N fusion, yeast selection) (log enrichment); library NNK2; higher = more nucleation; inactive = no reads after selection
Values of amyloid nucleation score greater than or equal to 0.3 map to yes (1); values below map to no (0).

| Substance | Label |
| --- | --- |
| ASPSHACGLC | yes (1) |
| FWALCVASVICYFVRMLSLA | no (0) |
| RCRFPVVIKQRDLVKEVMV | no (0) |
| FYNIRPETVAKAMKGLGWST | no (0) |
| CVYEIPKM | yes (1) |
| QSVLSLSGLYGHDLREGLL | no (0) |
| RWCSLDSQSDYSSM | no (0) |
| NFRGTVLLAR | yes (1) |

Qu. Check this substance for amyloid nucleation score at or above 0.3: "MSVSLLSDIN"
Ans. no (0)

Qu. Threshold query (amyloid nucleation score >= 0.3) on "CNNCYALYHDGV"
Ans. no (0)

Qu. // inclusive: amyloid nucleation score at least 0.3? input: "FLVYTWSFRNSCRPDLKVVE"
Ans. no (0)

Qu. API: above_or_equal(metric=amyloid nucleation score, cutoff=0.3) for item "VGGIWE"
Ans. no (0)

Qu. Entry "YEVSIIFCRLFSILIRPGTS" : is its amyloid nucleation score no less than 0.3?
Ans. no (0)
